# measurement notes: Clearance in rat at 2.2 mg/kg, iv
# Type: ADME, organism-based
# Set-up: dose 2.2 mg/kg, route intravenous
# test context: in vivo
readout kind: clearance (L/h/kg)
Answer with a number only, understood to be in L/h/kg.

Incoming: What value of clearance has been recorded for this entry: C[C@H](Oc1ccc(S(C)(=O)=O)cc1C(=O)N1Cc2ccc(C3CCOCC3)cc2C1)C(F)(F)F
Outgoing: 1.26

###

# measurement notes: Oral bioavailability in rat
# Assay type: ADME, organism-based
# test context: in vivo
readout kind: bioavailability
Dear colleague, please send the value followed by its unit.

Incoming: Please look up its bioavailability: C[C@H](Oc1ccc(S(C)(=O)=O)cc1C(=O)N1Cc2ccc(C(F)(F)F)cc2C1)C(F)(F)F
Outgoing: 23%

###

# measurement target: Sodium- and chloride-dependent glycine transporter 1 (Homo sapiens, UniProt P48067)
# Sequence (P48067 whole entry): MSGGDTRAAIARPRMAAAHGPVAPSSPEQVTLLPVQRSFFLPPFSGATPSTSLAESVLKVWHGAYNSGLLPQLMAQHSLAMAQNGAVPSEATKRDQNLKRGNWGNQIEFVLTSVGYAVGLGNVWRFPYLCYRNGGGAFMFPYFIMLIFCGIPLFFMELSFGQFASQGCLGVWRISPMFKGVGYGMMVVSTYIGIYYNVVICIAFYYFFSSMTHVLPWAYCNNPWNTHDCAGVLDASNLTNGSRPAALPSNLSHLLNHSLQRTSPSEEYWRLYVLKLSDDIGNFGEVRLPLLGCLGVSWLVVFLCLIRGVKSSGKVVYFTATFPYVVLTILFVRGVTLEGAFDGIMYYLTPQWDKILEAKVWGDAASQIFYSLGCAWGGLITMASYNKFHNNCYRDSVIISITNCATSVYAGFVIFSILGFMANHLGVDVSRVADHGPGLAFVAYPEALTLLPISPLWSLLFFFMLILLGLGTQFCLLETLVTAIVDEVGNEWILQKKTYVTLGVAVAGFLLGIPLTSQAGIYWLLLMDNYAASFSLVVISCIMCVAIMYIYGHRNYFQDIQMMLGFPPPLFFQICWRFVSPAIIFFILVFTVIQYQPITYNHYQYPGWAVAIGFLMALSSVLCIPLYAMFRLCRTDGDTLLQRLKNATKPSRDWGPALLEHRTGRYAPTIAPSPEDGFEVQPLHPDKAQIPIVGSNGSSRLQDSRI
# measurement notes: Inhibition of human GlyT1 expressed in CHO cells assessed as inhibition of [3H]glycine uptake by liquid scintillation counting
# Type: cell-based
readout kind: EC50 (nM)
Reply numerically in nM, unit not repeated.

Check out these entries, answers already filled in.
CS(=O)(=O)c1ccc(OCc2ccccc2)c(C(=O)N2Cc3cc(C(F)(F)F)cnc3C2)c1 | 805
C[C@H](Oc1ccc(S(C)(=O)=O)cc1C(=O)N1Cc2ccc(N3CCOCC3)cc2C1)C(F)(F)F | 275
CS(=O)(=O)c1ccc(OCCC(F)(F)F)c(C(=O)N2Cc3ccc(C4CCOCC4)cc3C2)c1 | 137

Incoming: Endpoint output: EC50 of C[C@H](Oc1ccc(S(C)(=O)=O)cc1C(=O)N1Cc2ccccc2C1)C(F)(F)F . Value?
Outgoing: 2540

Incoming: Given the entry CC(C)COc1ccc(S(C)(=O)=O)cc1C(=O)N1Cc2cc(C(F)(F)F)cnc2C1 , report its measured EC50.
Outgoing: 30

Incoming: Looking for the measured EC50 of C[C@H](Oc1ccc(S(C)(=O)=O)cc1C(=O)N1Cc2ccc(-c3ccncc3)cc2C1)C(F)(F)F , can you help?
Outgoing: 17

Incoming: Suppose we examine the compound Cc1cccc2c1CN(C(=O)c1cc(S(C)(=O)=O)ccc1O[C@@H](C)C(F)(F)F)C2 ; what EC50 value has been reported?
Outgoing: 3360

Incoming: Sample CC(C)Oc1ccc(S(C)(=O)=O)cc1C(=O)N1Cc2ccc(C3CCOCC3)cc2C1 — what was its EC50?
Outgoing: 28

Incoming: EC50 lookup needed for COc1ccc2c(c1)CN(C(=O)c1cc(S(C)(=O)=O)ccc1O[C@@H](C)C(F)(F)F)C2 , thanks.
Outgoing: 180

###

# measurement notes: Intrinsic clearance in mouse liver microsomes assessed per mg of protein
# Format: ADME, Microsome
readout kind: microsomal CLint (µL/min/mg)
Give just the number in µL/min/mg; leave the unit off.

Incoming: For the compound C[C@H](Oc1ccc(S(C)(=O)=O)cc1C(=O)N1Cc2ccc(Cl)cc2C1)C(F)(F)F , what microsomal CLint is on record?
Outgoing: 23.3

###

# measurement notes: Terminal half life in rat at 5.7 mg/kg, po
# Type: ADME, organism-based
# Design: dose 5.7 mg/kg, route oral
# test context: in vivo, read-out: beta t1/2 (converted)
readout kind: half-life (h)
Unit h implied. Number only.

Incoming: Which half-life value is on record for CC(C)Oc1ccc(S(C)(=O)=O)cc1C(=O)N1Cc2ccc(C3CCOCC3)cc2C1 ?
Outgoing: 1.6

###

# measurement notes: Clearance in rat at 1.7 mg/kg, iv
# Type: ADME, organism-based
# Parameters: dose 1.7 mg/kg, route intravenous
# test context: in vivo
readout kind: clearance (mL/min/kg)
Numeric only. Scale: mL/min/kg

Incoming: clearance lookup needed for CC(C)Oc1ccc(S(C)(=O)=O)cc1C(=O)N1Cc2ccc(C3CCOCC3)cc2C1 , thanks.
Outgoing: 22

###

# measurement notes: Aqueous solubility of the compound by lyophilisate solubility assay
# Format: physicochemical
# test context: buffer
In this section, each of the molecules is paired with its reported solubility.
Note: unit mg/mL is implicit; provide only the numeric part.

CC(C)COc1ccc(S(C)(=O)=O)cc1C(=O)N1Cc2cc(C(F)(F)F)cnc2C1 | 0.445
Cc1cccc2c1CN(C(=O)c1cc(S(C)(=O)=O)ccc1O[C@@H](C)C(F)(F)F)C2 | 0.073
C[C@H](Oc1ccc(S(C)(=O)=O)cc1C(=O)N1Cc2ccc(N3CCN(C)CC3)cc2C1)C(F)(F)F | 0.49
C[C@H](Oc1ccc(S(C)(=O)=O)cc1C(=O)N1Cc2cnc(C(F)(F)F)cc2C1)C(F)(F)F | 0.47
C[C@H](Oc1ccc(S(C)(=O)=O)cc1C(=O)N1Cc2ccc(N3CCOCC3)cc2C1)C(F)(F)F | 0.355

Incoming: Fill in: solubility of COc1cccc2c1CN(C(=O)c1cc(S(C)(=O)=O)ccc1O[C@@H](C)C(F)(F)F)C2 is ___
Outgoing: 0.085

Incoming: Can you look up the measured solubility of CS(=O)(=O)c1ccc(OCc2ccccc2)c(C(=O)N2Cc3cc(C(F)(F)F)cnc3C2)c1 for me?
Outgoing: 0.072

###

# measurement target: Sodium- and chloride-dependent glycine transporter 1 (Homo sapiens)
# Sequence (P48067 whole entry): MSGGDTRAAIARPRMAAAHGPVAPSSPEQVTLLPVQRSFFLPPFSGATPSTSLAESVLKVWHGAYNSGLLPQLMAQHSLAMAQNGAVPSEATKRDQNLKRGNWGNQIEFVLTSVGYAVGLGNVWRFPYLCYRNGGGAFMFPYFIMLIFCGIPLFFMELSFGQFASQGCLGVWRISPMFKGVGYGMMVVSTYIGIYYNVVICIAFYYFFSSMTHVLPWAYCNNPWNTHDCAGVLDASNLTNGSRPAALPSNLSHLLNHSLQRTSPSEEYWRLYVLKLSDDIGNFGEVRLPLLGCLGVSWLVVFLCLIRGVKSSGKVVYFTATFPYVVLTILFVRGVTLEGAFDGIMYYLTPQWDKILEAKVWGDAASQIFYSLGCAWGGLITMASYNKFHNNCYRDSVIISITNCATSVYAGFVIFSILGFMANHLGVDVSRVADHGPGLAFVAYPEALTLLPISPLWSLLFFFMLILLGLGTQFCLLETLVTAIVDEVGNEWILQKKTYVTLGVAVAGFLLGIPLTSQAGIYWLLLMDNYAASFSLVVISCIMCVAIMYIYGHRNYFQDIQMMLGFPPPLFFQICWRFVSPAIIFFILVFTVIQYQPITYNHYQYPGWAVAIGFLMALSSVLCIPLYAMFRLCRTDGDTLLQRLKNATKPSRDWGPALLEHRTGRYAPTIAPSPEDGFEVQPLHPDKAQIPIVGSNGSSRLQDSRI
# measurement notes: Inhibition of human GlyT1 expressed in CHO cells assessed as inhibition of [3H]glycine uptake by liquid scintillation counting
# Format: cell-based
pEC50: −log10 of the molar value.
Decide by pEC50: equal to or exceeding 7 means True, less means False.

C[C@H](Oc1ccc(S(C)(=O)=O)cc1C(=O)N1Cc2cccc(C#N)c2C1)C(F)(F)F | False

Moving on to the next molecule.
Incoming: Does C[C@H](Oc1ccc(S(C)(=O)=O)cc1C(=O)N1Cc2ccc(-c3ccccc3)cc2C1)C(F)(F)F have a reported pEC50 of at least 7?
Outgoing: True

###

# measurement target: Sodium- and chloride-dependent glycine transporter 1 (Homo sapiens, UniProt P48067)
# measurement notes: Inhibition of human GlyT1 expressed in CHO cells assessed as inhibition of [3H]glycine uptake by liquid scintillation counting
# Assay type: cell-based
Overview of reported pEC50 across a group of compounds:
Entry type: numeric. Quantity: pEC50, the -log10 of concentration in molar units.

C[C@H](Oc1ccc(S(C)(=O)=O)cc1C(=O)N1Cc2cc(C(F)(F)F)cnc2C1)C(F)(F)F | 7.30

Incoming: What does the data say about its pEC50? Entry: C[C@H](Oc1ccc(S(C)(=O)=O)cc1C(=O)N1Cc2ccc(C(F)(F)F)nc2C1)C(F)(F)F
Outgoing: 6.60

Incoming: Which pEC50 value is on record for C[C@H](Oc1ccc(S(C)(=O)=O)cc1C(=O)N1Cc2ccc(N3CCCC3)cc2C1)C(F)(F)F ?
Outgoing: 6.74

Incoming: For the compound shown here, C[C@H](Oc1ccc(S(C)(=O)=O)cc1C(=O)N1Cc2ccc(C3CCCCO3)cc2C1)C(F)(F)F (some centres undefined) , give the reported pEC50.
Outgoing: 6.69
